src = PubChem BioAssay AID1159580

- experimental.details: chemical genetic growth profiling, strain panel (AID 1159580);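 also: tested at 20 µM; growth read once vehicle control cultures reached saturation at 30 °C; 1 = growth at the plate median or of vehicle wells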
- experimental.setup: S. cerevisiae deletion strains, growth OD, locus YJL092W, strain hpr5, hits give low values
Among all 5,500 compounds or so, about 2,000 (36%) were called active. Roughly 18% stayed inconclusive and do not appear here. Some of the results follow.
assay.endpoint: normalized growth
Answer field: number only, no words.

Query: Supply recorded normalized growth for CC(C(=O)O)c1ccc2c(c1)[nH]c1ccc(Cl)cc12 (configuration not stated) here.
Result: 0.982

Query: Quick one: give measured normalized growth for `COc1ccc(-c2coc3c(OC)c(OC)cc(O)c3c2=O)cc1`
Result: 1.01

Query: Dear colleague, please send me the reported normalized growth for `C1CCc2nnnn2CC1` when you can.
Result: 1

Query: Write down normalized growth measured for item O=C(O)C1CC([C@@H]2CCCCN2)CN2CCCCC12 (some centres not stated)
Result: 0.976

Query: Fill in normalized growth for record `CCN(CC)C(=S)SSC(=S)N(CC)CC`
Result: 0.0611

Query: Supply recorded normalized growth for `O=C(/C=C/C=C/c1ccc2c(c1)OCO2)N1CCCCC1` here.
Result: 0.947

Query: Could you please provide reported normalized growth for CC(=O)O[C@H]1C(=O)[C@@]2(C)C([C@H](OC(=O)c3ccccc3)[C@]3(O)C[C@H](O)C(C)=C1C3(C)C)[C@]1(OC(C)=O)CO[C@@H]1C[C@@H]2O (some centres not stated) ? Thanks!
Result: 0.998

Query: For the compound CN1C2CC3C[C@H]1C(O3)C2O (some centres not stated) , give its reported normalized growth.
Result: 1.02

Query: Give recorded normalized growth. OCC(O)Cc1ccc2c(c1)OCO2 (configuration not stated)
Result: 0.998

Query: Let me know recorded normalized growth for `O=c1ccc2ccccc2o1` , thanks.
Result: 0.996

Query: Supply recorded normalized growth for `C=CCc1ccc2c(c1)OCO2` here.
Result: 1.03

Query: Name the recorded normalized growth of the item `C/C=C(/C(=C/C)c1ccc(O)cc1)c1ccc(O)cc1` in your answer.
Result: 0.971

---

- experimental.details: chemical genetic growth profiling, strain panel (AID 1159580);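 also: tested at 20 µM; growth read once vehicle control cultures reached saturation at 30 °C; 1 = growth at the plate median or of vehicle wells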
- experimental.setup: S. cerevisiae deletion strains, growth OD, locus YGR092W, strain DBF2, hits give low values
The whole screen tested about 5,500 compounds, of which about 2,000 (36%) were called active. About 18% were inconclusive and are not listed. Some of the results follow.
Doc: threshold 0.6 (exclusive). Items with normalized growth beneath it return Fulfilled; others return Not fulfilled.

Query: Please determine if `N#C/C(=C\c1ccccc1Sc1ccc(Cl)cc1)S(=O)(=O)c1ccccn1` is below 0.6 in terms of normalized growth.
Result: Not fulfilled

Query: Lab log: compare recorded normalized growth with 0.6; is it strictly lower for `Cc1c(Cl)cccc1NC(=S)N1CCCN(c2ccc(C(F)(F)F)cc2[N+](=O)[O-])CC1` ?
Result: Not fulfilled

Query: I wonder whether Cc1ccccc1C(=O)N1CCc2c([nH]c3ccccc23)C1C(F)(F)F (centres undefined) has normalized growth below 0.6. Can you tell?
Result: Not fulfilled

Query: Please let me know if `CC1=CC(=O)C(CCOCCC2=CC(=O)C(C)=CC2=O)=CC1=O` shows normalized growth below 0.6.
Result: Not fulfilled

Query: Does this molecule meet the criterion normalized growth < 0.6? `O=C(C=C(O)c1ccc(Br)cc1)C(=O)Nc1ccccc1`
Result: Fulfilled

Query: State whether 0.6 exceeds normalized growth recorded for `NCCCN=c1ccc2c3c1c(O)c1c(O)ccc(=O)c1c3[nH]n2CCNCCO` .
Result: Not fulfilled

Query: Confirm or reject: normalized growth of `O=C(Oc1cc(Cl)c(Cl)cc1Cl)C1c2ccccc2Oc2ccccc21` lies strictly below 0.6
Result: Not fulfilled

Query: Strictly below 0.6 in normalized growth? `O=C(CCN1CCCCC1)c1ccc(-c2ccccc2)cc1`
Result: Fulfilled

Query: Field: below-cutoff. Rule: recorded normalized growth strictly less than 0.6. Subject: CCC(C)c1ccccc1NC(=O)c1cc2cccc([N+](=O)[O-])c2[nH]1 (centres undefined)
Result: Not fulfilled

Query: In plain terms, does `O=[N+]([O-])c1cc(C(F)(F)F)ccc1-n1ccc(-c2cccs2)n1` come in under 0.6 for normalized growth?
Result: Not fulfilled

Query: hey, is normalized growth for `N#Cc1c(Cl)c(Cl)c(Cl)c(Cl)c1C#N` lower than 0.6 or not?
Result: Fulfilled

Query: Quick check: normalized growth of `N#C/C(=N/Nc1ccccc1Cl)S(=O)(=O)c1ccc(Cl)cc1` under 0.6?
Result: Not fulfilled

Query: A record lists `CC(C)(C)C1=NN(c2nc3ccc(Cl)cc3s2)C(=O)C1` . Is its normalized growth below 0.6?
Result: Fulfilled

Query: Lab note: confirm whether the reported normalized growth for this molecule is below 0.6, equality not counting. molecule: `Cn1cncc1S(=O)(=O)/C(C#N)=C/c1ccccc1Sc1ccc(Cl)cc1`
Result: Not fulfilled
